tested on: KRAS-mutant PDC multicell tumor spheroid viability; test: Anticancer human tumor 521955-158-R2-J5-PDC patient-derived pancreatic carcinoma cell line growth inhibition [KRAS2]; conditions: second compound 1 µM; first compound 0.1 µM; stronger effect = lower value

{"columns": ["Compound", "Target system", "viability, T/C"],
 "data": [
  ["CC(=O)OC12COC1CC(O)C1(C)C(=O)C(O)C3=C(C)C(OC(=O)C(O)C(NC(=O)OC(C)(C)C)c4ccccc4)CC(O)(C(OC(=O)c4ccccc4)C21)C3(C)C (stereo not drawn) + CNCc1ccccc1-c1csc(C(C)Nc2nc(C)nc3cc(OC)c(OC)cc23)c1", "KRAS-mutant PDC multicell tumor spheroid viability", "13.2%"],
  ["CC1(C)CCC(CN2CCN(c3ccc(C(=O)NS(=O)(=O)c4ccc(NCC5CCOCC5)c([N+](=O)[O-])c4)c(Oc4cnc5[nH]ccc5c4)c3)CC2)=C(c2ccc(Cl)cc2)C1 + CNCc1ccccc1-c1csc(C(C)Nc2nc(C)nc3cc(OC)c(OC)cc23)c1", "KRAS-mutant PDC multicell tumor spheroid viability", "104%"],
  ["CC(C)NCC(C(=O)N1CCN(c2ncnc3c2C(C)CC3O)CC1)c1ccc(Cl)cc1 (stereo not drawn) + CNCc1ccccc1-c1csc(C(C)Nc2nc(C)nc3cc(OC)c(OC)cc23)c1", "KRAS-mutant PDC multicell tumor spheroid viability", "98.5%"]
]}

====

Listed here: items and their measured viability, T/C.
test system: KRAS-mutant PDC multicell tumor spheroid viability; test: Anticancer human tumor 521955-158-R2-J5-PDC cell line growth inhibition [KRAS2]; settings: second compound 1 µM; first compound 0.0316 µM; stronger effect = lower value;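 further: viability read after seven days of drug exposure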
Experimental endpoint: viability, T/C (%)

{"columns": ["Compound", "Experimental endpoint", "Unit info", "Value"],
 "data": [
  ["CC1OCC2(CCN(c3cnc(Sc4ccnc(N)c4Cl)c(N)n3)CC2)C1N (stereo not given) + C=CC(=O)N1CCN(c2nc(=O)n(-c3c(C)ccnc3C(C)C)c3nc(-c4c(O)cccc4F)c(F)cc23)C(C)C1", "viability, T/C", "%", 101],
  ["CCNC(=O)CC1N=C(c2ccc(Cl)cc2)c2cc(OC)ccc2-n2c(C)nnc21 (stereo not given) + C=CC(=O)N1CCN(c2nc(=O)n(-c3c(C)ccnc3C(C)C)c3nc(-c4c(O)cccc4F)c(F)cc23)C(C)C1", "viability, T/C", "%", 120],
  ["Cn1nccc1Nc1nccc(-c2cc3c(s2)C(C)(C)N(CCN2CCOCC2)C3=O)n1 + C=CC(=O)N1CCN(c2nc(OCC3CCCN3C)nc3c2CCN(c2cccc4cccc(C)c24)C3)CC1CC#N", "viability, T/C", "%", 75.5],
  ["COc1cc(Nc2ncc3c(n2)-c2ccc(Cl)cc2C(c2c(F)cccc2OC)=NC3)ccc1C(=O)O + CC1OCC2(CCN(c3cnc(Sc4ccnc(N)c4Cl)c(N)n3)CC2)C1N", "viability, T/C", "%", 39.5],
  ["Cn1ncnc1[C@H]1c2n[nH]c(=O)c3cc(F)cc(c23)N[C@@H]1c1ccc(F)cc1 + CNCc1ccccc1-c1csc(C(C)Nc2nc(C)nc3cc(OC)c(OC)cc23)c1", "viability, T/C", "%", 91.5]
]}

====

Listed here: items and their measured pIC50.
system: KRAS-mutant PDC multicell tumor spheroid viability; assay: Anticancer human tumor 521955-158-R2-J5-PDC cell line growth inhibition [KRAS2]; conditions: curve of first compound; second compound 0.1 µM;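 further: viability read after seven days of drug exposure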
pIC50: −log10 of the molar value.
Experimental endpoint: pIC50

{"columns": ["Compound", "Bound sign", "Value"],
 "data": [
  ["COc1cc(Nc2ncc3c(n2)-c2ccc(Cl)cc2C(c2c(F)cccc2OC)=NC3)ccc1C(=O)O + C=CC(=O)N1CCN(c2nc(=O)n(-c3c(C)ccnc3C(C)C)c3nc(-c4c(O)cccc4F)c(F)cc23)C(C)C1", ">", 7.50],
  ["CC(C)NCC(C(=O)N1CCN(c2ncnc3c2C(C)CC3O)CC1)c1ccc(Cl)cc1 (stereo unspecified) + COc1cc2nc(C)nc(NC(C)c3cc(N)cc(C(F)(F)F)c3)c2cc1OC1CCOC1", "<", 5.00],
  ["COC(=O)c1ccc2c(C(=Nc3ccc(N(C)C(=O)CN4CCN(C)CC4)cc3)c3ccccc3)c(O)[nH]c2c1 + CNCc1ccccc1-c1csc(C(C)Nc2nc(C)nc3cc(OC)c(OC)cc23)c1", "=", 5.65],
  ["CC1COCCN1c1cc(-c2ccnn2C)c2ccnc(-c3ccn[nH]3)c2n1 (stereo unspecified) + C=CC(=O)N1CCN(c2nc(OCC3CCCN3C)nc3c2CCN(c2cccc4cccc(C)c24)C3)CC1CC#N", "=", 7.53],
  ["Cn1ncnc1[C@H]1c2n[nH]c(=O)c3cc(F)cc(c23)N[C@@H]1c1ccc(F)cc1 + COc1cc2nc(C)nc(NC(C)c3cc(N)cc(C(F)(F)F)c3)c2cc1OC1CCOC1", "<", 7.00],
  ["CC1COCCN1c1cc(-c2ccnn2C)c2ccnc(-c3ccn[nH]3)c2n1 (stereo unspecified) + CNCc1ccccc1-c1csc(C(C)Nc2nc(C)nc3cc(OC)c(OC)cc23)c1", "=", 7.52],
  ["CC(=O)Nc1cccc(-n2c(=O)n(C3CC3)c(=O)c3c(Nc4ccc(I)cc4F)n(C)c(=O)c(C)c32)c1 + CNCc1ccccc1-c1csc(C(C)Nc2nc(C)nc3cc(OC)c(OC)cc23)c1", "=", 9.60],
  ["COc1cc(Nc2ncc3c(n2)-c2ccc(Cl)cc2C(c2c(F)cccc2OC)=NC3)ccc1C(=O)O + COc1cc2nc(C)nc(NC(C)c3cc(N)cc(C(F)(F)F)c3)c2cc1OC1CCOC1", ">", 7.50],
  ["CC(=O)Nc1cccc(-n2c(=O)n(C3CC3)c(=O)c3c(Nc4ccc(I)cc4F)n(C)c(=O)c(C)c32)c1 + CC1OCC2(CCN(c3cnc(Sc4ccnc(N)c4Cl)c(N)n3)CC2)C1N", "=", 9.84],
  ["O=C(c1cc(Cc2n[nH]c(=O)c3ccccc23)ccc1F)N1CCN(C(=O)C2CC2)CC1 + C=CC(=O)N1CCN(c2nc(=O)n(-c3c(C)ccnc3C(C)C)c3nc(-c4c(O)cccc4F)c(F)cc23)C(C)C1", "<", 5.00],
  ["CC(C)NCC(C(=O)N1CCN(c2ncnc3c2C(C)CC3O)CC1)c1ccc(Cl)cc1 (stereo unspecified) + CC1OCC2(CCN(c3cnc(Sc4ccnc(N)c4Cl)c(N)n3)CC2)C1N", "<", 5.00]
]}

====

tested on: KRAS-mutant PDC multicell tumor spheroid viability; experiment: Anticancer human tumor 521955-158-R2-J5-PDC cell line growth inhibition [KRAS2]; conditions: second compound 10 µM; first compound 3.16 µM; active = viability on the fitted dose curve at most 10% of control; inactive = the rest;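 further: viability read after seven days of drug exposure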
Labels: true (1) (active), false (0) (inactive)

{"columns": ["Molecule", "Category label"],
 "data": [
  ["CCNC(=O)CC1N=C(c2ccc(Cl)cc2)c2cc(OC)ccc2-n2c(C)nnc21 (stereo not drawn) + CC1OCC2(CCN(c3cnc(Sc4ccnc(N)c4Cl)c(N)n3)CC2)C1N", "false (0)"],
  ["COc1cc2nccc(Oc3ccc(NC(=O)C4(C(=O)Nc5ccc(F)cc5)CC4)cc3)c2cc1OC + COc1cc2nc(C)nc(NC(C)c3cc(N)cc(C(F)(F)F)c3)c2cc1OC1CCOC1", "true (1)"],
  ["CC(=O)OC12COC1CC(O)C1(C)C(=O)C(O)C3=C(C)C(OC(=O)C(O)C(NC(=O)OC(C)(C)C)c4ccccc4)CC(O)(C(OC(=O)c4ccccc4)C21)C3(C)C (stereo not drawn) + CNCc1ccccc1-c1csc(C(C)Nc2nc(C)nc3cc(OC)c(OC)cc23)c1", "true (1)"]
]}

====

Listed here: items and their measured viability, T/C.
system: KRAS-mutant PDC multicell tumor spheroid viability; assay: Anticancer human tumor 521955-158-R2-J5-PDC cell line growth inhibition [KRAS2]; conditions: second compound 0.0316 µM; first compound 0.001 µM; stronger effect = lower value;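 further: viability read after seven days of drug exposure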

{"columns": ["Compound", "viability, T/C, %"],
 "data": [
  ["CN(C)C/C=C/C(=O)Nc1cc2c(Nc3ccc(F)c(Cl)c3)ncnc2cc1O[C@H]1CCOC1 + C=CC(=O)N1CCN(c2nc(OCC3CCCN3C)nc3c2CCN(c2cccc4cccc(C)c24)C3)CC1CC#N", 104],
  ["CC(=O)Nc1cccc(-n2c(=O)n(C3CC3)c(=O)c3c(Nc4ccc(I)cc4F)n(C)c(=O)c(C)c32)c1 + C=CC(=O)N1CCN(c2nc(OCC3CCCN3C)nc3c2CCN(c2cccc4cccc(C)c24)C3)CC1CC#N", 34.6],
  ["Cn1ncnc1[C@H]1c2n[nH]c(=O)c3cc(F)cc(c23)N[C@@H]1c1ccc(F)cc1 + C=CC(=O)N1CCN(c2nc(OCC3CCCN3C)nc3c2CCN(c2cccc4cccc(C)c24)C3)CC1CC#N", 114],
  ["CC(C)n1nc(-c2ccc3oc(N)nc3c2)c2c(N)ncnc21 + C=CC(=O)N1CCN(c2nc(OCC3CCCN3C)nc3c2CCN(c2cccc4cccc(C)c24)C3)CC1CC#N", 97.1]
]}

All values here come from PubChem BioAssay AID1963871.
